This collection of values is drawn from ChEMBL document CHEMBL3352534.

Tested on: Liver microsome
TEST DETAILS: Prodrug conversion in rat liver microsomes assessed as half life
MEASURED ATTRIBUTE: t1/2
Record the result as number plus unit.

Enquiry: I have this compound here, CCOc1cc(NC(=O)C2(NC(=O)c3ccc4c(C5CCCC5)c(-c5ncc(Cl)cn5)n(C)c4c3)CCC2)ccc1/C=C/C(=O)OCCOCCOC , and I need its recorded t1/2.
Return: 1.07 h

Enquiry: For CCOc1cc(NC(=O)C2(NC(=O)c3ccc4c(C5CCCC5)c(-c5ncc(Cl)cn5)n(C)c4c3)CCC2)ccc1/C=C/C(=O)OCCC(C)C , what is its reported t1/2?
Return: 1.42 h

Enquiry: Report t1/2 for CCOC(=O)/C=C/c1ccc(NC(=O)C2(NC(=O)c3ccc4c(C5CCCC5)c(-c5ncc(Cl)cn5)n(C)c4c3)CCC2)cc1OCC please.
Return: 3.07 h

Enquiry: Quick one: t1/2 for CCOc1cc(NC(=O)C2(NC(=O)c3ccc4c(C5CCCC5)c(-c5ncc(Cl)cn5)n(C)c4c3)CCC2)ccc1/C=C/C(=O)OCC(=O)OCc1ccc(Cl)cc1 ?
Return: 11.4 h

Enquiry: Could you share which t1/2 value was measured for CCOc1cc(NC(=O)C2(NC(=O)c3ccc4c(C5CCCC5)c(-c5ncc(Cl)cn5)n(C)c4c3)CCC2)ccc1/C=C/C(=O)OCCN(C)C ?
Return: 0.317 h

Enquiry: What value of measured t1/2 is listed for CCOc1cc(NC(=O)C2(NC(=O)c3ccc4c(C5CCCC5)c(-c5ncc(Cl)cn5)n(C)c4c3)CCC2)ccc1/C=C/C(=O)OCC(=O)OC ?
Return: 2.08 h
